Consider the following molecules and their measured MIC90 readings.
System: Cryptococcus neoformans
Protocol Notes: Antimicrobial activity against Cryptococcus neoformans by broth microdilution method
Format: functional
Measured Property: MIC90 (mg/L)

{"columns": ["Molecule", "Operator", "Measured Value"],
 "data": [
  ["CSc1ccc(C2NC(c3ccc(SC)cc3)C3C(=NO)C2C(c2ccc(SC)cc2)NC3c2ccc(SC)cc2)cc1 (stereo not drawn)", "=", 32],
  ["CON=C1C2C(c3ccccc3Cl)NC(c3ccccc3Cl)C1C(c1ccccc1Cl)NC2c1ccccc1Cl (stereo not drawn)", "=", 16],
  ["ON=C1C2C(c3ccccc3Cl)NC(c3ccccc3Cl)C1C(c1ccccc1Cl)NC2c1ccccc1Cl (stereo not drawn)", "=", 16],
  ["COc1ccc(C2NC(c3ccc(OC)cc3)C3C(=NO)C2C(c2ccc(OC)cc2)NC3c2ccc(OC)cc2)cc1 (stereo not drawn)", "=", 64],
  ["CON=C1C2C(c3ccccc3OC)NC(c3ccccc3OC)C1C(c1ccccc1OC)NC2c1ccccc1OC (stereo not drawn)", "=", 8],
  ["CON=C1C2C(c3cccc(Cl)c3)NC(c3cccc(Cl)c3)C1C(c1cccc(Cl)c1)NC2c1cccc(Cl)c1 (stereo not drawn)", ">", 128],
  ["ON=C1C2C(c3ccccc3)NC(c3ccccc3)C1C(c1ccccc1)NC2c1ccccc1 (stereo not drawn)", ">", 128],
  ["CON=C1C2C(c3cccc(Br)c3)NC(c3cccc(Br)c3)C1C(c1cccc(Br)c1)NC2c1cccc(Br)c1 (stereo not drawn)", ">", 128]
]}
